TARGET ENTITY: HLA-B*08:01
MEASUREMENT PROTOCOL: IEDB peptide-MHC binding, purified MHC/direct/fluorescence; filed as Kd, often an IC50 or EC50 that approximates it; bounds were set here for any values at or beyond the usual limits of such assays
RUN CONDITIONS: source organism: Rickettsia sibirica 246
PROPERTY: Kd

*Q* Look at this sequence and give its reported Kd. SSSGMDAYY
*A* ≥ 20 µM

* * *

TARGET ENTITY: HLA-A*26:01
MEASUREMENT PROTOCOL: IEDB peptide-MHC binding, purified MHC/competitive/fluorescence; filed as Kd, often an IC50 or EC50 that approximates it; bounds were set here for any values at or beyond the usual limits of such assays
RUN CONDITIONS: source organism: Mycobacterium tuberculosis C
PROPERTY: pKd
On this scale, pKd is minus log10 of a concentration expressed in M (mol/L).

*Q* Look at this sequence and give its reported pKd. AVFPRYHPR
*A* 5.78

* * *

TARGET ENTITY: HLA-B*08:01
MEASUREMENT PROTOCOL: IEDB peptide-MHC binding, purified MHC/direct/fluorescence; filed as Kd, often an IC50 or EC50 that approximates it; bounds were set here for any values at or beyond the usual limits of such assays
RUN CONDITIONS: source organism: Giardia lamblia ATCC 50803
pKd: −log10 of the molar value.
Below, each entry is listed with its recorded pKd.

Sample answers from the record:
QUERY SEQUENCE	pKd
LPVFATIGL	≤ 4.70
SVKERGPAY	≤ 4.70

*Q* Look at this sequence and give its reported pKd. RPRGHREFC
*A* 5.09

* * *

TARGET ENTITY: HLA-A*02:16
MEASUREMENT PROTOCOL: IEDB peptide-MHC binding, purified MHC/direct/fluorescence; filed as Kd, often an IC50 or EC50 that approximates it; bounds were set here for any values at or beyond the usual limits of such assays
RUN CONDITIONS: source organism: Reston ebolavirus
PROPERTY: Kd

*Q* Look at this sequence and give its reported Kd. GVPPKVVSY
*A* ≥ 20 µM

* * *

TARGET ENTITY: HLA-B*08:01
MEASUREMENT PROTOCOL: IEDB peptide-MHC binding, purified MHC/competitive/fluorescence; bounds were set here for any values at or beyond the usual limits of such assays
RUN CONDITIONS: source organism: Vaccinia virus
pIC50: −log10 of the molar value.
PROPERTY: pIC50

QUERY SEQUENCE	pIC50
YRNKPSIAT	≤ 3.89
FLRYLLFGI	≤ 3.71

*Q* Look at this sequence and give its reported pIC50. EPPLVRHAC
*A* ≤ 3.28

* * *

TARGET ENTITY: HLA-A*02:01
MEASUREMENT PROTOCOL: IEDB peptide-MHC binding, purified MHC/direct/fluorescence; filed as Kd, often an IC50 or EC50 that approximates it; bounds were set here for any values at or beyond the usual limits of such assays
RUN CONDITIONS: source organism: Vibrio cholerae
PROPERTY: Kd

*Q* Look at this sequence and give its reported Kd. AENKKFKLH
*A* ≥ 20 µM

* * *

TARGET ENTITY: HLA-B*35:01
MEASUREMENT PROTOCOL: IEDB peptide-MHC binding, purified MHC/direct/fluorescence; filed as Kd, often an IC50 or EC50 that approximates it; bounds were set here for any values at or beyond the usual limits of such assays
RUN CONDITIONS: source organism: Escherichia coli O157:H7
PROPERTY: Kd (nM)
Give the value, in units of nM, as a plain number.

*Q* Look at this sequence and give its reported Kd. RPPRRGDKF
*A* 1370

* * *

TARGET ENTITY: HLA-A*11:01
MEASUREMENT PROTOCOL: IEDB peptide-MHC binding, purified MHC/competitive/fluorescence; bounds were set here for any values at or beyond the usual limits of such assays
RUN CONDITIONS: source organism: Vaccinia virus WR
PROPERTY: IC50 (µM)
Give the value, in units of µM, as a plain number.

*Q* Look at this sequence and give its reported IC50. ANNNRLPKR
*A* 11.7

* * *

TARGET ENTITY: HLA-B*57:01
MEASUREMENT PROTOCOL: IEDB peptide-MHC binding, purified MHC/competitive/radioactivity; filed as Kd, often an IC50 or EC50 that approximates it; bounds were set here for any values at or beyond the usual limits of such assays
RUN CONDITIONS: source organism: Homo sapiens
PROPERTY: Kd (nM)
Give the value, in units of nM, as a plain number.

*Q* Look at this sequence and give its reported Kd. YTAVVPLVY
*A* 208

* * *

TARGET ENTITY: HLA-B*08:01
MEASUREMENT PROTOCOL: IEDB peptide-MHC binding, purified MHC/direct/fluorescence; filed as Kd, often an IC50 or EC50 that approximates it; bounds were set here for any values at or beyond the usual limits of such assays
RUN CONDITIONS: source organism: Pasteurella multocida
PROPERTY: pKd
On this scale, pKd is minus log10 of a concentration expressed in M (mol/L).

*Q* Look at this sequence and give its reported pKd. NNKSRLVAF
*A* 6.79

* * *

TARGET ENTITY: HLA-B*35:01
MEASUREMENT PROTOCOL: IEDB peptide-MHC binding, purified MHC/competitive/radioactivity; filed as Kd, often an IC50 or EC50 that approximates it; bounds were set here for any values at or beyond the usual limits of such assays
RUN CONDITIONS: source organism: Dengue virus 2 Peru/IQT2913/1996
PROPERTY: Kd (nM)
Give the value, in units of nM, as a plain number.

*Q* Look at this sequence and give its reported Kd. VATTFITPM
*A* 146

* * *

TARGET ENTITY: HLA-A*68:02
MEASUREMENT PROTOCOL: IEDB peptide-MHC binding, purified MHC/competitive/radioactivity; filed as Kd, often an IC50 or EC50 that approximates it; bounds were set here for any values at or beyond the usual limits of such assays
RUN CONDITIONS: source organism: Dengue virus 1 Nauru/West Pac/1974
PROPERTY: Kd
# output: number + unit

*Q* Look at this sequence and give its reported Kd. TTATITPQA
*A* 1.12 nM

* * *

TARGET ENTITY: HLA-B*15:01
MEASUREMENT PROTOCOL: IEDB peptide-MHC binding, purified MHC/direct/fluorescence; filed as Kd, often an IC50 or EC50 that approximates it; bounds were set here for any values at or beyond the usual limits of such assays
RUN CONDITIONS: source organism: Rickettsia conorii
PROPERTY: pKd
On this scale, pKd is minus log10 of a concentration expressed in M (mol/L).

*Q* Look at this sequence and give its reported pKd. SSSGMDAYY
*A* 6.80

* * *

TARGET ENTITY: HLA-A*23:01
MEASUREMENT PROTOCOL: IEDB peptide-MHC binding, purified MHC/direct/fluorescence; filed as Kd, often an IC50 or EC50 that approximates it; bounds were set here for any values at or beyond the usual limits of such assays
RUN CONDITIONS: source organism: Vibrio vulnificus CMCP6
PROPERTY: Kd (nM)
Give the value, in units of nM, as a plain number.

*Q* GET /values?readout=Kd&system=HLA-A*23:01&item= SVYFAAFAF
*A* 16

* * *

TARGET ENTITY: HLA-B*35:01
MEASUREMENT PROTOCOL: IEDB peptide-MHC binding, purified MHC/competitive/fluorescence; filed as Kd, often an IC50 or EC50 that approximates it; bounds were set here for any values at or beyond the usual limits of such assays
RUN CONDITIONS: source organism: Yersinia pestis Nepal516
PROPERTY: Kd (nM)
Give the value, in units of nM, as a plain number.

*Q* Look at this sequence and give its reported Kd. FASASSYAI
*A* 0.4

* * *

TARGET ENTITY: HLA-B*08:01
MEASUREMENT PROTOCOL: IEDB peptide-MHC binding, purified MHC/direct/fluorescence; filed as Kd, often an IC50 or EC50 that approximates it; bounds were set here for any values at or beyond the usual limits of such assays
RUN CONDITIONS: source organism: Escherichia coli 536
PROPERTY: Kd

*Q* Look at this sequence and give its reported Kd. RYICPVQQI
*A* ≥ 20 µM

* * *

TARGET ENTITY: HLA-A*03:01
MEASUREMENT PROTOCOL: IEDB peptide-MHC binding, purified MHC/direct/fluorescence; filed as Kd, often an IC50 or EC50 that approximates it; bounds were set here for any values at or beyond the usual limits of such assays
RUN CONDITIONS: source organism: Maciel virus
PROPERTY: Kd

*Q* Look at this sequence and give its reported Kd. HTQAIEGAW
*A* ≥ 20 µM

* * *

TARGET ENTITY: HLA-B*40:02
MEASUREMENT PROTOCOL: IEDB peptide-MHC binding, purified MHC/competitive/radioactivity; filed as Kd, often an IC50 or EC50 that approximates it; bounds were set here for any values at or beyond the usual limits of such assays
RUN CONDITIONS: source organism: Mammarenavirus machupoense
Below, each entry is listed with its recorded Kd.
Give the value, in units of µM, as a plain number.

QUERY SEQUENCE	Kd, µM
EDIAMGYVV	0.0698

Now, please, on to the next sequence.
*Q* Look at this sequence and give its reported Kd. SEILKTLGF
*A* 0.165
